Listing of recorded Tm by entry.
# Assay Remarks: melting temperature; melt of duplexes
# Details: sodium 0.0675 M; strand 1 µM
Give a bare numeral; the unit °C is implied.

Past entries and their recorded results:
INSERT INTO measurements (substance, value_kind, endpoint_result) VALUES
  ('CGACGTGCGAAATGTGCTG+CAGCACATAGGGCACGTCG ((((((((...((((((((+))))))))...))))))))', 'Tm', 49.9),
  ('CGACGTGCTACATGTGCTG+CAGCACATTACGCACGTCG ((((((((...((((((((+))))))))...))))))))', 'Tm', 48.7),
  ('CGACGTGCCCAATGTGCTG+CAGCACATCAAGCACGTCG ((((((((...((((((((+))))))))...))))))))', 'Tm', 48.9),
  ('CGACGTGCCGTATGTGCTG+CAGCACATTAAGCACGTCG ((((((((...((((((((+))))))))...))))))))', 'Tm', 49.1);

# Tm lookup, item CGACGTGCGACATGTGCTG+CAGCACATCAAGCACGTCG ((((((((...((((((((+))))))))...))))))))
52.6

Same again, this time with CGACGTGCGGGATGTGCTG+CAGCACATTCAGCACGTCG ((((((((.(.((((((((+)))))))).).))))))))
56.4

Same again, this time with CGACGTGCAATATGTGCTG+CAGCACATTGTGCACGTCG (((((((((..((((((((+))))))))..)))))))))
49.1
